B1: Ribonuclease HI, P0A7Y4 (parent)
chain: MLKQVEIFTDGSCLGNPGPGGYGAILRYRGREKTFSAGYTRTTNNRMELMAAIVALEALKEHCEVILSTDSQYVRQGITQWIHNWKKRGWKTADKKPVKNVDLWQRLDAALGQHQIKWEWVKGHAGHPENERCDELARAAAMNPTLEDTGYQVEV

- Variants of: B1
- TEST_PARAMETERS: Escherichia coli (strain K12); pH 5.5; 25 °C; Urea; CD; Sodium acetate 10 mM; NaCl 0.1 M; reversible: yes; structure 2RN2; whole UniProt chain shown
VALUE_TYPE: unfolding free energy (kcal/mol)
Write the answer as a number in kcal/mol, unit excluded.

> print(dat)
   mutant.id  measure.unit  quantitative.readout
1       S68V      kcal/mol                  11.1
2       S68A      kcal/mol                    10
3       S68T      kcal/mol                  9.91

// below: unfolding free energy requested for another variant
Qu. Which unfolding free energy is listed for S68G ?
Ans. 7.61
